- SYSTEM UNDER TEST: ER-alpha (WT) (Homo sapiens)
- Construct: endogenous in cells
- Sequence (P03372 whole entry): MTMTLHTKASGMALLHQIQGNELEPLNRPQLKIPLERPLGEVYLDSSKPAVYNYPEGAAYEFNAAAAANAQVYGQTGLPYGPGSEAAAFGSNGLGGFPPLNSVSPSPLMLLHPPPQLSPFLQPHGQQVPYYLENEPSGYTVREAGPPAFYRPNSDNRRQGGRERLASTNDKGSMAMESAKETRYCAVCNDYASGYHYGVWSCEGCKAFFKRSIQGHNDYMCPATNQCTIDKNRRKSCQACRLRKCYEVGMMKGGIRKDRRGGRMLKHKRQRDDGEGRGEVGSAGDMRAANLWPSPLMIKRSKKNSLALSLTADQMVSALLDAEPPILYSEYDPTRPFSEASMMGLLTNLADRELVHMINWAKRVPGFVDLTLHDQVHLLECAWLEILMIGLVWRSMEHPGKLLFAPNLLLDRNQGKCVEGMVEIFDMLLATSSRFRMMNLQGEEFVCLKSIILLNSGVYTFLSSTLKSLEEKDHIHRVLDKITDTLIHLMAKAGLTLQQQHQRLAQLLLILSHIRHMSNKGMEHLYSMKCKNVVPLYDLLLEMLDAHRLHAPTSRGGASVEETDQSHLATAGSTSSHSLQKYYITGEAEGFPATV
- ASSAY DETAILS: Breast Cancer Cell ERa High Content Fluorescence Imaging Degradation Assay (MCF7 HCS)
- ASSAY CONTEXT: MCF7 breast cancer cells, 4 hours incubation; inflexion point of curve
pEC50: −log10 of the molar value.

| COMPOUND | RELATION SYMBOL | pEC50 |
| --- | --- | --- |
| CC(=O)c1ccc2c(c1)C[C@@H](C)N(CC(F)(F)CO)[C@@H]2c1ccc(OCCN2CC(CF)C2)cc1 (single isomer, unassigned) | = | 9.77 |
| C[C@@H]1Cc2cc(CO)ccc2[C@@H](c2ccc(NC3CN(CCCF)C3)cc2)N1CC(F)(F)F (single isomer, unassigned) | = | 10.06 |
| OCc1ccc2c(c1)CCN(CC(F)(F)F)[C@@H]2c1ccc(OCCN2CC(CF)C2)cc1 | = | 8.77 |
| Oc1ccc2c(c1)CCN(c1ccccc1)C2c1ccc(OCCN2CC(CF)C2)cc1 (stereo not drawn) | = | 9.68 |
| C[C@H]1Cc2cc(O)ccc2[C@H](c2ccc(OCCN3CC(CF)C3)cc2)N1CC(F)(F)F (single isomer, unassigned) | = | 8.85 |
| FCC1CN(CCOc2ccc([C@@H]3c4ccc(-c5cc[nH]n5)cc4CCN3CC(F)(F)F)cc2)C1 | = | 7.77 |
| C[C@H]1Cc2ccccc2[C@H](c2ccc(OCCN3CC(CF)C3)cc2)N1CC(F)(F)F (single isomer, unassigned) | = | 7.51 |
| C[C@H]1Cc2cc(CO)ccc2[C@H](c2ccc(OCCN3CC(CF)C3)cc2)N1CC(F)(F)CO (single isomer, unassigned) | = | 7.64 |
| C[C@@]1(c2ccc(OCCN3CC(CF)C3)cc2)c2ccc(O)cc2CCN1CC(F)(F)F | = | 10.22 |
| Oc1ccc2c(c1)CCCN(CC(F)(F)F)[C@@H]2c1ccc(OCCN2CC(CF)C2)cc1 (single isomer, unassigned) | = | 10.30 |
| FCC1CN(CCOc2ccc([C@@H]3c4ccc(N5CCOCC5)cc4CCN3CC(F)(F)F)cc2)C1 | = | 7.92 |
| CC(C)(F)C(=O)N1CCc2cc(O)ccc2[C@H]1c1ccc(OCCN2CC(CF)C2)cc1 (single isomer, unassigned) | = | 9.13 |
| CC(C)(F)C(=O)N1CCc2cc(O)ccc2[C@@H]1c1ccc(OCCN2CC(CF)C2)cc1 (single isomer, unassigned) | = | 7.00 |
| C[C@@H]1Cc2cc(S(N)(=O)=O)ccc2[C@@H](c2ccc(OCCN3CC(CF)C3)cc2)N1CC(F)(F)CO (single isomer, unassigned) | = | 8.54 |
| FCC1CN(CCOc2ccc([C@@H]3c4ccc(-c5cn[nH]c5)cc4CCN3CC(F)(F)F)cc2)C1 | = | 9.25 |
| C[C@@H]1CN(S(C)(=O)=O)[C@@H](c2ccc(OCCN3CC(CF)C3)cc2)c2ccc(O)cc21 (single isomer, unassigned) | ≤ | 7.00 |
| C[C@@H]1CN(S(C)(=O)=O)[C@H](c2ccc(OCCN3CC(CF)C3)cc2)c2ccc(O)cc21 | = | 7.59 |
| CS(=O)(=O)N1CCc2cc(O)ccc2[C@@H]1c1ccc(OCCN2CC(CF)C2)cc1 (single isomer, unassigned) | ≤ | 7.00 |
| C[C@@]1(c2ccc(OCCN3CC(CF)C3)cc2)c2ccc(O)cc2CCN1CC(F)(F)CO | = | 10.38 |
| C[C@@H]1Cc2c(ccc3[nH]ncc23)[C@@H](c2c(F)cc(OCCN3CC(CF)C3)cc2F)N1CC(C)(C)F (single isomer, unassigned) | = | 10.22 |
| CC(C)(F)CN1CCc2cc(O)ccc2[C@H]1c1ccc(OCCN2CC(CF)C2)cc1 | = | 10.38 |
| CC(C)(F)CN1CCc2cc(O)ccc2[C@]1(c1ccc(OCCN2CC(CF)C2)cc1)C(F)F (single isomer, unassigned) | = | 10.12 |
| CC1(C)Cc2cc(O)ccc2C(c2ccc(OCCN3CC(CF)C3)cc2)N1CC(F)(F)F (single isomer, unassigned) | = | 10.38 |
| C[C@@H]1Cc2cc(O)ccc2[C@H](c2ccc(OCCN3CC(CF)C3)cc2)N1S(C)(=O)=O | ≤ | 7.00 |
| C[C@H]1Cc2cc(S(N)(=O)=O)ccc2[C@H](c2ccc(OCCN3CC(CF)C3)cc2)N1CC(F)(F)CO (single isomer, unassigned) | = | 7.20 |
| C[C@@H](CN1CCc2cc(O)ccc2[C@@]1(C)c1ccc(OCCN2CC(CF)C2)cc1)C(=O)O | ≤ | 7.00 |
| C[C@H]1CN(S(C)(=O)=O)[C@H](c2ccc(OCCN3CC(CF)C3)cc2)c2ccc(O)cc21 | = | 7.74 |
